These entries and their values trace back to ChEMBL document CHEMBL1126970.

We begin with a simple list: items and their reported IC50.
# systemTested: Cholecystokinin receptor type A (Rattus norvegicus)
# Sequence (P30551 whole entry): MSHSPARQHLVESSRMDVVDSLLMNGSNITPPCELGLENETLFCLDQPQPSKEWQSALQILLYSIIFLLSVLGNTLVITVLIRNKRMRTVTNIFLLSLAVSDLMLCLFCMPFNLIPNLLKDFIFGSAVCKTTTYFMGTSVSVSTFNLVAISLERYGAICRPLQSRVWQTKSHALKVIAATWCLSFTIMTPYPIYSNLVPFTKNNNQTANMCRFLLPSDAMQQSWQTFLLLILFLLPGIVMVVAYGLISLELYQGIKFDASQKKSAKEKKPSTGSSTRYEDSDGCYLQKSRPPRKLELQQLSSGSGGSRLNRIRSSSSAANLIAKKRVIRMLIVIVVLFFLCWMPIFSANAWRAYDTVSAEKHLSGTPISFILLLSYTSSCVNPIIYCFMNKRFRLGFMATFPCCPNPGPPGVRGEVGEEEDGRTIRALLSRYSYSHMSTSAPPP
All answers are understood in nM, so give the number only.

In the examples that follow, each entry is paired with its recorded IC50.
>>> df
                                   compound  unitdescriptor  quantitativeresult
0  CN1C(=O)C(NC(=O)Nc2cccc(-c3ccccc3)c2)N=C(c2ccccc2)c2ccccc21 (racemic)              nM                 123
1  COc1ccc(NC(=O)NC2N=C(c3ccccc3)c3ccccc3N(C)C2=O)cn1 (configuration not stated)              nM                2900
2  CN1C(=O)[C@H](NC(=O)Nc2cccc(O)c2)N=C(c2ccccc2)c2ccccc21              nM                  60
3  CN1C(=O)C(NC(=O)Nc2cccnc2)N=C(c2ccccc2)c2ccccc21 (racemic)              nM                 120
4  CN1C(=O)[C@@H](NC(=O)Nc2ccc(Cl)cc2)N=C(c2ccccc2)c2ccccc21              nM                 110

Request: For CN1C(=O)C(NC(=O)Nc2ccncc2)N=C(c2ccccc2)c2ccccc21 (racemic) , write its IC50.
Result: 1510

Request: Output IC50 of COc1cccc(NC(=O)NC2N=C(c3ccccc3)c3ccccc3N(CC(=O)N3CCCC3)C2=O)c1 (racemic)
Result: 170

Request: Query IC50 for `CN1C(=O)[C@@H](NC(=O)Nc2ccccc2Cl)N=C(c2ccccc2)c2ccccc21`
Result: 0.26

Request: Consider the compound CN1C(=O)C(NC(=O)NCc2cccc(C(C)(C)O)c2)N=C(c2ccccc2)c2ccccc21 (configuration not stated) . State its measured IC50.
Result: 406

Request: Supply reported IC50 belonging to this compound: CCN(CC)C(=O)CN1C(=O)C(NC(=O)Nc2cccc(OC)c2)N=C(c2ccccc2)c2ccccc21 (racemic)
Result: 120

Request: Fill in IC50 for record `CN1C(=O)[C@H](NC(=O)NCc2cccc(O)c2)N=C(c2ccccc2)c2ccccc21`
Result: 21

Request: Please list IC50 recorded for the compound CN1C(=O)C(NC(=O)Nc2cccc(CNC(=O)OC(C)(C)C)c2)N=C(c2ccccc2)c2ccccc21 (configuration not stated)
Result: 200

====

# Species on record: Cavia porcellus
# assayInfo: Selectivity ratio between CCK-B and CCK-A receptor
# Design: reference not given here
measurementLabel: Selectivity ratio

Completed entries (count: 3):
>>> df
                                   compound  result
0  COc1cccc(NC(=O)NC2N=C(c3ccccc3)c3ccccc3N(CCN(C)C)C2=O)c1 (racemic)      16
1  Cc1cccc(NC(=O)NC2N=C(c3ccccc3)c3ccccc3N(Cc3c[nH]cn3)C2=O)c1 (racemic)       1
2  CCN(CC)C(=O)CN1C(=O)C(NC(=O)Nc2cccc(C)c2)N=C(c2ccccn2)c2ccccc21 (racemic)     776

Request: // Input: `O=C(Nc1ccc(Cl)cc1)N[C@@H]1N=C(c2ccccc2)c2ccccc2N(CC(=O)N2CCCC2)C1=O` . Output its Selectivity ratio only.
Result: 643

Request: Please report Selectivity ratio for the following compound: O=C(Nc1ccc(Cl)cc1)NC1N=C(c2ccccc2)c2ccccc2N(C[C@@H](O)CN2CCCC2)C1=O (mixture of isomers)
Result: > 10

Request: Give the measured Selectivity ratio for `CC(=O)Oc1cccc(NC(=O)N[C@@H]2N=C(c3ccccc3)c3ccccc3N(C)C2=O)c1`
Result: 13

Request: Query Selectivity ratio for `CN1C(=O)[C@@H](NC(=O)Nc2ccccc2Cl)N=C(c2ccccc2)c2ccccc21`
Result: < 0.01

Request: Give the measured Selectivity ratio for `CN1C(=O)[C@@H](NC(=O)c2ccc(C(F)(F)F)cc2)N=C(c2ccccc2)c2ccccc21`
Result: 0.3

Request: Please indicate Selectivity ratio recorded for Cc1cccc(NC(=O)NC2N=C(c3ccccc3)c3ccccc3N(CC(=O)N3CCN(C)CC3)C2=O)c1 (racemic)
Result: 217

Request: Provide one value: measured Selectivity ratio of O=C(O)CN1C(=O)C(NC(=O)Nc2ccc(Cl)cc2)N=C(c2ccccc2)c2ccccc21 (racemic)
Result: 0.77

Request: // Input: CN1C(=O)C(NC(=O)Nc2cccc([N+](=O)[O-])c2)N=C(c2ccccc2)c2ccccc21 (racemic) . Output its Selectivity ratio only.
Result: 3
